- Test system: TK-10
- assay-procedure: NCI tumour cell line growth inhibition, 48 h
The source made the active and inactive calls. Cut-off read from the data, not from the text of the source: active = GI50 up to about 1.1 µM and inactive = higher.
For each entry below, report its GI50 value.

Examples with answers:
{"columns": ["molecule", "GI50"],
 "data": [
  ["NCCSCCc1ccccc1", "> 100 µM (inactive)"],
  ["COc1ccc2c3c([nH]c(=O)c2c1C(=O)O)-c1ccccc1CC3", "> 100 µM (inactive)"],
  ["COC12OCCN(C)C1=CC(=O)C1N=NCC12 (centres undefined)", "> 100 µM (inactive)"],
  ["O=C(NNC(=S)Nc1cccc(Cl)c1)c1cc(-c2ccccc2)nc2ccccc12", "15.4 µM (inactive)"],
  ["Nc1nc(N)c2cc(S(=O)(=O)c3ccc4ccccc4c3)ccc2n1", "> 100 µM (inactive)"]
]}

Items follow; give GI50 for each.
1. O=[N+]([O-])C(/C(Cl)=C(\Cl)Br)=C(/Cl)SCc1ccccc1
2. CC1CCCN(CC(O)CN2CCCc3ccccc32)C1 (centres undefined)
3. O=C(O)c1ccccc1C1c2ccccc2Oc2ccccc21
4. Cc1c(C)c(CC(=O)N2CC2)c(C)c(C)c1CC(=O)N1CC1
5. Cc1ccccc1C(=O)N1CCc2c([nH]c3ccccc23)C1
6. C=C1C(=O)OC2/C=C(\COC(C)=O)CCC(OC(C)=O)C3=CC(OC3=O)C12 (centres undefined)
7. Cc1c(O)c(C)c2c(C)cn(C(=O)C(C)(C)C)c2c1C

output:
1: 4.5 µM (inactive); 2: > 100 µM (inactive); 3: > 100 µM (inactive); 4: 25.9 µM (inactive); 5: 28.2 µM (inactive); 6: 5.28 µM (inactive); 7: 20.5 µM (inactive)

Items follow; give GI50 for each.
1. COC/C=C\[C@@]1(O)CCCC[C@@H]1CC(OC)OC
2. Nc1nc(-c2ccc(Cl)c([N+](=O)[O-])c2)cs1

output:
> 100 µM (inactive)
> 100 µM (inactive)

---

For each entry below, report its GI50 value.
- Test system: SN12C
- assay-procedure: NCI tumour cell line growth inhibition, 48 h
Calls of active or inactive are those of the source. Rule as the data show it: active = GI50 up to about 1.1 µM and inactive = higher.

Examples with answers:
{"columns": ["mol", "target-entity", "test-result"],
 "data": [
  ["CC(C)(C)OC/C=C(/CO)[C@@H]1C=C[C@H](O)C1", "SN12C", "> 100 µM (inactive)"],
  ["O=C1/C(=C/c2ccc(O)cc2)CCc2ccc([N+](=O)[O-])cc21", "SN12C", "> 100 µM (inactive)"],
  ["O=C(NNC(=S)Nc1cccc(Cl)c1)c1cc(-c2ccccc2)nc2ccccc12", "SN12C", "14.7 µM (inactive)"],
  ["COC(=O)/C=C/CC(=O)NS(C)(=O)=O", "SN12C", "> 10 µM (inactive)"]
]}

input: Please report the measured GI50 for CC1=NCCc2cc3[nH]c4ccccc4c3cc21 tested on SN12C.
output: 17.5 µM (inactive)

---

- Tested on: SNB-75
- assay-procedure: NCI tumour cell line growth inhibition, 48 h
Activity calls are given as the source filed them. No stated cut-off is given here; in the data, active = GI50 up to about 1.1 µM and inactive = higher.
Respond with a class label; see TRUE for active, FALSE for inactive

Past entries and their recorded results:
{"columns": ["compound", "label-value"],
 "data": [
  ["CCOC(=O)CCCN", "FALSE"],
  ["CC(C)CCNC(=O)c1ccc(CNC(=O)/C=C/c2ccc(-c3ccccc3[N+](=O)[O-])o2)cc1", "FALSE"]
]}

input: # outcome recorded in this test, key = Oc1ccc(-c2cn3cc(C(F)(F)F)ccc3n2)cc1
output: FALSE

input: # outcome recorded in this test, key = COC(=O)c1ccc2c(c1)CC1(C2)Cc2cc3c(cc2C1=O)CCC3 (configuration not stated)
output: FALSE

input: # outcome recorded in this test, key = O=C1C(c2ccccc2)=C(c2ccccc2)C(c2ccccc2)/C1=C1\C(=O)C(c2ccccc2)=C(c2ccccc2)C1c1ccccc1 (configuration not stated)
output: FALSE
